Each entry below carries its reported FACS signal at 1.6 nM.
- Target or test system: human Claudin-6 (CLDN6) (human) (UniProt P56747)
- Experimental details: FACS, limiting dilution, UMUC4 cells

{"Binder": "AB S7 (antibody, V domains shown) VH: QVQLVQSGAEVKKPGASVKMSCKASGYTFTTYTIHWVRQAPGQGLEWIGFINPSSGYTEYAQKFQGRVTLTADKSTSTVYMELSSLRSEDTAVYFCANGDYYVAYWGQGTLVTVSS VL: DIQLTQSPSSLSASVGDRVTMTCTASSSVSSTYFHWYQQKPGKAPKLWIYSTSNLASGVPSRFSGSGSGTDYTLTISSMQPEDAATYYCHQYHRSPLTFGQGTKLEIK", "FACS signal at 1.6 nM": 1790}
{"Binder": "AB S9 (antibody, V domains shown) VH: QVQLVQSGAEVKKPGASVKMSCKASGYTFTTYTIHWVRQAPGQGLEWIGVINPSSGYTDYAQKFQGRVTLTADKSTSTVYMELSSLRSEDTAVYFCANGDYYVGYWGQGTLVTVSS VL: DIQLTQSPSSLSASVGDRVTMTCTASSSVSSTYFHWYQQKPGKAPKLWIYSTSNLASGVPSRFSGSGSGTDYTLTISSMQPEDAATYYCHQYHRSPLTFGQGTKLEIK", "FACS signal at 1.6 nM": 11600}
{"Binder": "AB1-11 (antibody, V domains shown, humanized; also called humanized AB1-11; HU-11) VH: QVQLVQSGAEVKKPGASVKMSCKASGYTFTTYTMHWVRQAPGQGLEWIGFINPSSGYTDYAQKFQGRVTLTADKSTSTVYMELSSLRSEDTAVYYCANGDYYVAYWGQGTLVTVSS VL: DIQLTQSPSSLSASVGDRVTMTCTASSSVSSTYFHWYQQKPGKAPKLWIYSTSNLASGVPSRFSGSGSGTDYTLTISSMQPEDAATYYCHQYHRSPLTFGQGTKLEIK", "FACS signal at 1.6 nM": 839}
{"Binder": "AB S5 (antibody, V domains shown) VH: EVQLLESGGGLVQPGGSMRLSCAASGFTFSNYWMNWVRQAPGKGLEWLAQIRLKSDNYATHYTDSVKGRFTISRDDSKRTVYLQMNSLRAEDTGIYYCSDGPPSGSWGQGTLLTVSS VL: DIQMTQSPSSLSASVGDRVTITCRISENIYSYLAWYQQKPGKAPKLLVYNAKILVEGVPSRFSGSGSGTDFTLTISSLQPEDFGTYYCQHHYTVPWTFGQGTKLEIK", "FACS signal at 1.6 nM": 885}
{"Binder": "AB S8 (antibody, V domains shown) VH: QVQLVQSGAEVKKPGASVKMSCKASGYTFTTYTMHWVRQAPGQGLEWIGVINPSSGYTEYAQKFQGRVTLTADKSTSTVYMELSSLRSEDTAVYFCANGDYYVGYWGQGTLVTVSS VL: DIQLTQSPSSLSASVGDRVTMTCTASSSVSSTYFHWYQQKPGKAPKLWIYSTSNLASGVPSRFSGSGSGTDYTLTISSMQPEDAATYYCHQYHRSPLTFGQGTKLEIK", "FACS signal at 1.6 nM": 6220}
